The values you see were collected from PubChem BioAssay (NCI).

system: MDA-MB-468 breast; experiment: NCI tumour cell line growth inhibition, 48 h
endpoint-name: TGI (µM)

OCc1ccc(N(Cc2ccc(F)cc2)Cc2ccc(F)cc2)cc1Cl :: 1.7
CC(C)(C)C[C@H]1N[C@@H](C(=O)NC2CCC(O)CC2)[C@H](c2cccc(Cl)c2F)[C@@]12C(=O)Nc1cc(Cl)ccc12 (stereo partly drawn) :: 18.5
Nc1cc2c3c(cccc3c1)C(=O)N(CCN1CCCC1)C2=O :: 21.1
